B1: Ankyrin-2, residues 3571 to 3650; numbered along this chain, Q01484 (parent)
chain: ERLAYIADHLGFSWTELARELDFTEEQIHQIRIENPNSLQDQSHALLKYWLERDGKHATDTNLVECLTKINRMDIVHLME

Variants of: B1
protocolDetails: abundance fitness (aPCA) (normalised: wild type 0, dead -1); higher = more abundant; growth selection in yeast, the domain comes from the species named
studyConditions: Homo sapiens
# abundance fitness >= -0.04 gives 1.0, anything below gives 0.0

Is it the case that L21W has abundance fitness reaching or exceeding -0.04?
0.0

Another variant: L39I
1.0

Another variant: N35E
0.0

Another variant: A45V
1.0

Another variant: I31C
1.0

Another variant: I28F
0.0

Another variant: S43Y
0.0

Another variant: L3M
1.0

Another variant: D41E
0.0

Another variant: K48H
1.0

Another variant: N37F
1.0
